Overview of recorded Secondary Lesions (% Inhibition) for various molecules
tested on: adjuvant induced arthritis; assay: adjuvant induced arthritis test in the rat (primary and secondary lesions); format: in vivo, rat (Royal Hart, Wistar strain); conditions: oral 50 mg/kg once daily, day 14
Give the value in % but do not write % after it.

{"smiles_notation": "N#CCC(=O)c1ccc(F)cc1", "unit_annotation": "%", "Secondary Lesions (% Inhibition)": 34}

INPUT: Answer with the recorded Secondary Lesions (% Inhibition) of N#CC=C(N)c1cccs1 only.
OUTPUT: 13

INPUT: Answer with the recorded Secondary Lesions (% Inhibition) of N#CCC(=O)c1ccccc1 only.
OUTPUT: 66

INPUT: Answer with the recorded Secondary Lesions (% Inhibition) of N#CCC(=N)c1ccccc1 only.
OUTPUT: 70

// data source = patent US4325949A
